Known inhibition at 1 µM of a selection of compounds
# test.system: Human JAK2 (Homo sapiens (Human))
# Sequence (O60674 whole entry): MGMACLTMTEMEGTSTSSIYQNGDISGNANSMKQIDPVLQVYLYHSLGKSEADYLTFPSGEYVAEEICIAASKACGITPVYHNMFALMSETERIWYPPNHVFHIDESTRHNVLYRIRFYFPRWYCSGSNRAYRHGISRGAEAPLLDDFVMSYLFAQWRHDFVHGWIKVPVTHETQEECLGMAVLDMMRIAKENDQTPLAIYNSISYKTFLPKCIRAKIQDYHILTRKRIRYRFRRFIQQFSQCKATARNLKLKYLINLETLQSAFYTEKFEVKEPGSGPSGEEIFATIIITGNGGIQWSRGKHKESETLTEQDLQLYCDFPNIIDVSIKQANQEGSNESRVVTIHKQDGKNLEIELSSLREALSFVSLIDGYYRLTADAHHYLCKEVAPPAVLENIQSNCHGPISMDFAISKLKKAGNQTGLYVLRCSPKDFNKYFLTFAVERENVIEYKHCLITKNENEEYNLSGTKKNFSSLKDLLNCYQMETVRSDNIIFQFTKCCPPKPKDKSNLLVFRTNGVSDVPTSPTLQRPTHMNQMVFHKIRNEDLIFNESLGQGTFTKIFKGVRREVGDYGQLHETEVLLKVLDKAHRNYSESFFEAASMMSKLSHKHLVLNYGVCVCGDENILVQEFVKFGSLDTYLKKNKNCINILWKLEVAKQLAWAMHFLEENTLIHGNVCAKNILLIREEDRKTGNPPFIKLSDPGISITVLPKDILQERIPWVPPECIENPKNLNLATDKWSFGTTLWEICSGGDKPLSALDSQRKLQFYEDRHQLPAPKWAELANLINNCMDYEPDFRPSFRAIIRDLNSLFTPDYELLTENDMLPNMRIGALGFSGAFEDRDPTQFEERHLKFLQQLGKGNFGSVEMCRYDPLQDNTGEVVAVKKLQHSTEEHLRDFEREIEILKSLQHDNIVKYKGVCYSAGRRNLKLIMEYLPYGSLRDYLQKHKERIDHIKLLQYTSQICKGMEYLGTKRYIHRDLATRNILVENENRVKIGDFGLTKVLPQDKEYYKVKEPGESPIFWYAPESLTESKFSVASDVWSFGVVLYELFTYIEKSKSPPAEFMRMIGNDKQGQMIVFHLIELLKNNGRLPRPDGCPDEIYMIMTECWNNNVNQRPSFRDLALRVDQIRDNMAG
# protocol.text: In vitro kinase inhibition test, JAK2 (33P-ATP filter scintillation)
# Assay type: biochemical
# test.settings: compound at 1 uM; read-out: JAK2 kinase-phosphorylation inhibitory level (% inhibition)
# Protocol: 1. In Vitro Kinase Inhibition Test Kinases used were human-derived JAK1, JAK2, JAK3, and TYK2 (Millipore, Germany). Each of these kinases was diluted with a suitable buffer solution as described below, and then mixed with reagents. […]

What the record says about CN(c1ncnc2[nH]ccc12)[C@@H]1CN(C(=O)c2ccc(C#N)cc2)CC12CC2 : inhibition at 1 µM is -5%

# compound CNC(=O)CC(=O)N1C[C@@H](N(C)c2ncnc3[nH]ccc23)C2(CC2)C1 ; its inhibition at 1 µM = -7%

GET /value?item= CN(c1ncnc2[nH]ccc12)[C@@H]1CN(C(=O)CC#N)CC12CC2 &field=inhibition at 1 µM returns -15%
